src = ChEMBL document CHEMBL5046278

test: Permeability of compound at pH 7.4 incubated for 4 hrs by PAMPA assay; assay type: ADME; details: read-out: permeability
Output schema: class label derived from Papp at 4 h. Mapping: lower band (below 8 nm/s), central band (8 nm/s to below 200 nm/s), upper band (200 nm/s or more)

The examples below pair each entry with its known result.
# CHEMICAL STRUCTURE, LABEL CLASS
rows = [
    ("NC(=O)NCCCCN(C[C@H]1Cc2ncccc2CN1)[C@H]1CCCc2cccnc21", "lower band"),
    ("CN(CCCCN(C[C@H]1Cc2ncccc2CN1)[C@H]1CCCc2cccnc21)C1CCOCC1", "upper band"),
    ("NCCCCN(C[C@@H]1Cc2nccnc2CN1)[C@H]1CCCc2cccnc21", "lower band"),
    ("FC1(F)CCC(NCCCCN(C[C@H]2Cc3ncccc3CN2)[C@H]2CCCc3cccnc32)CC1", "central band"),
    ("NCCCCN(C[C@@H]1Cc2cccnc2CN1)[C@H]1CCCc2cccnc21", "central band"),
]

## Task Sort into band: CN(CCCCN(C[C@H]1Cc2ncccc2CN1)[C@H]1CCCc2cccnc21)C1CCC(F)(F)CC1
## Result upper band

## Task And then NCCCCN(C[C@H]1Cc2cccnc2CN1)[C@H]1CCCc2cccnc21 , what is it?
## Result lower band

## Task And then NC(=O)NC/C=C\CN(C[C@H]1Cc2ncccc2CN1)[C@H]1CCCc2cccnc21 , what is it?
## Result lower band

## Task And then CN(C)CCCCN(C[C@H]1Cc2ncccc2CN1)[C@H]1CCCc2cccnc21 , what is it?
## Result upper band

## Task And then NC/C=C\CN(C[C@H]1Cc2ncccc2CN1)[C@H]1CCCc2cccnc21 , what is it?
## Result central band

## Task And then c1cnc2c(c1)CN[C@@H](CN(CCCCN(C1COC1)C1COC1)[C@H]1CCCc3cccnc31)C2 , what is it?
## Result upper band

## Task And then NCCCCN(C[C@@H]1Cc2ncccc2CN1)[C@H]1CCCc2cccnc21 , what is it?
## Result lower band

## Task And then NCc1ccc(CN(C[C@H]2Cc3ncccc3CN2)[C@H]2CCCc3cccnc32)cc1 , what is it?
## Result central band

## Task And then NCCCCN(C[C@H]1Cc2nccnc2CN1)[C@H]1CCCc2cccnc21 , what is it?
## Result lower band

## Task And then NC(=O)NC/C=C/CN(C[C@H]1Cc2ncccc2CN1)[C@H]1CCCc2cccnc21 , what is it?
## Result lower band

## Task And then c1cnc2c(c1)CN[C@@H](CN(CCCCN1CCOCC1)[C@H]1CCCc3cccnc31)C2 , what is it?
## Result upper band

## Task And then NCCCCN(C[C@H]1Cc2ncccc2CN1)[C@H]1CCCc2cccnc21 , what is it?
## Result central band
